# System: Amine oxidase [flavin-containing] B (Rattus norvegicus, UniProt P19643)
# Sequence (P19643 whole entry): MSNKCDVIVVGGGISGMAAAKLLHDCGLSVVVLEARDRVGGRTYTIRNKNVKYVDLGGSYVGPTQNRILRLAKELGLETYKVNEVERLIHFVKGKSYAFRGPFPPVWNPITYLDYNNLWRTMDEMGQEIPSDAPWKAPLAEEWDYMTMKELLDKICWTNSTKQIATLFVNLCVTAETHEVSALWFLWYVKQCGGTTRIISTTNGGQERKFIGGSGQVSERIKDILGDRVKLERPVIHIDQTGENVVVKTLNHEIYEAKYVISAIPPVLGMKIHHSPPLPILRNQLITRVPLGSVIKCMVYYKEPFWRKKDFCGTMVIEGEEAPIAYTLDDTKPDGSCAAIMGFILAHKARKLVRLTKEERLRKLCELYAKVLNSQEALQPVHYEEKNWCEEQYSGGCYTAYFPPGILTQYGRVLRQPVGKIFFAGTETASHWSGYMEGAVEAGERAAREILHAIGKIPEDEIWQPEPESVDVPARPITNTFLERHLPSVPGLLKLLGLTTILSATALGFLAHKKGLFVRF
# Test Description: Competitive inhibition of rat MAOB expressed in Pichia pastoris
Reported Metric: Ki (µM)

a: CCc1ccc(CCOc2ccc(CC3SC(=O)NC3=O)cc2)nc1 (racemic) [PIOGLITAZONE]
b: CN(CCOc1ccc(CC2SC(=O)NC2=O)cc1)c1ccccn1 (racemic) [ROSIGLITAZONE]
In: # return whichever of a and b has the smaller Ki Select an item and report its label.
Out: a

---

# System: Amine oxidase [flavin-containing] A (Homo sapiens)
# Sequence (P21397 whole entry): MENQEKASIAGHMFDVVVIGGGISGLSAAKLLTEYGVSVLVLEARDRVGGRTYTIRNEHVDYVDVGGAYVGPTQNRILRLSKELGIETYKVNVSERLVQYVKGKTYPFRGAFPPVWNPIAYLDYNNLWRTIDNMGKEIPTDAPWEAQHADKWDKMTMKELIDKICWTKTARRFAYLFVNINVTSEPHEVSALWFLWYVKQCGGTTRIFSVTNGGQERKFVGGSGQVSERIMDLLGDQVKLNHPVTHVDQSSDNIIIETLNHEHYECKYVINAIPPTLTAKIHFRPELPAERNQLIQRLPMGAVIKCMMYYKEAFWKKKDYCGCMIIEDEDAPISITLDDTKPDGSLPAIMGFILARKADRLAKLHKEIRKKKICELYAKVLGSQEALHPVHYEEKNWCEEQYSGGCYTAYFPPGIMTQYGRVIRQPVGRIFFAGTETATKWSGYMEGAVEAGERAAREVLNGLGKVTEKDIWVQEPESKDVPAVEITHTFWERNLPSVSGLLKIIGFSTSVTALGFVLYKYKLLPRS
# Test Description: Competitive inhibition of human MAOA expressed in Pichia pastoris
Reported Metric: Ki (µM)
A number alone suffices; assume µM.

In: Dear colleague, I am looking for the recorded Ki of the following molecule: CN(CCOc1ccc(CC2SC(=O)NC2=O)cc1)c1ccccn1 (racemic) [ROSIGLITAZONE]
Out: 27.6

---

# System: Amine oxidase [flavin-containing] B (Homo sapiens)
# Sequence (P27338 whole entry): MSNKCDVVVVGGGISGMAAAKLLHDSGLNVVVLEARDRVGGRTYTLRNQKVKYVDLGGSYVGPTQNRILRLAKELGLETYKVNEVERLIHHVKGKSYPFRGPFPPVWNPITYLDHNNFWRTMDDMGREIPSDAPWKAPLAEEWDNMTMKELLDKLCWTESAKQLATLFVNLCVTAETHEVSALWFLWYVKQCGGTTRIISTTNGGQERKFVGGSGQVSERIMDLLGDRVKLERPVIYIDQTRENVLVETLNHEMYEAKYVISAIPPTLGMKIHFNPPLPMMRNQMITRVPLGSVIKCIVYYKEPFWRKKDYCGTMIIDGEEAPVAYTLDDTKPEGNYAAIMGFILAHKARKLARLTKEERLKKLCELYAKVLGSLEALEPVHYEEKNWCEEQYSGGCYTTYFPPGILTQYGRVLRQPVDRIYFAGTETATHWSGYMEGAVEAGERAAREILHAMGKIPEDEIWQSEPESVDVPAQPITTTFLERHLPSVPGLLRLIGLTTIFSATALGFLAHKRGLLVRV
# Test Description: Competitive inhibition of human MAOB expressed in Pichia pastoris
Reported Metric: Ki (µM)
Reply with just the number (in µM).

In: // Ki lookup, key: CN(CCOc1ccc(CC2SC(=O)NC2=O)cc1)c1ccccn1 (racemic)
Out: 4.2

---

# System: Amine oxidase [flavin-containing] A (Rattus norvegicus, UniProt P21396)
# Sequence (P21396 whole entry): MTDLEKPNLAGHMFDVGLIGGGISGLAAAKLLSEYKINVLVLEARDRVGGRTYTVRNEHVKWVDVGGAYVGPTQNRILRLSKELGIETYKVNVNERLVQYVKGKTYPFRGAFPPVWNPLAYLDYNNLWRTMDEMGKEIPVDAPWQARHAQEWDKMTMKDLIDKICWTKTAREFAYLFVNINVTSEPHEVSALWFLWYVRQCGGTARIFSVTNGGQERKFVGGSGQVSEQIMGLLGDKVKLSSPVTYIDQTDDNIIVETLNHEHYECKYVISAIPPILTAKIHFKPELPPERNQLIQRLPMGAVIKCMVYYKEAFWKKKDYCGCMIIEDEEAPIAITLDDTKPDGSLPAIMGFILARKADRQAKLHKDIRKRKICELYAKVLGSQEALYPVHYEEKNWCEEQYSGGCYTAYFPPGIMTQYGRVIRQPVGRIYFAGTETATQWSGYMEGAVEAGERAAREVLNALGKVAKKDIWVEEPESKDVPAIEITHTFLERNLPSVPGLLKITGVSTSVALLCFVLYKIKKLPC
# Test Description: Uncompetitive inhibition of rat MAOA expressed in Pichia pastoris
Reported Metric: pKi
Field pKi (float): negative decimal logarithm of the concentration in molar.

In: Given the entry Cc1c(C)c2c(c(C)c1O)CCC(C)(COc1ccc(CC3SC(=O)NC3=O)cc1)O2 (stereo unspecified) , report its measured pKi.
Out: 5.32

---

# System: Amine oxidase [flavin-containing] A (Rattus norvegicus, UniProt P21396)
# Test Description: Competitive inhibition of rat MAOA expressed in Pichia pastoris
Reported Metric: Ki (µM)
Kindly provide the numeric value in µM only, without the unit symbol.

In: Quick check: Ki of CN(CCOc1ccc(CC2SC(=O)NC2=O)cc1)c1ccccn1 (racemic) [ROSIGLITAZONE] ?
Out: 32.6

---

# System: Amine oxidase [flavin-containing] B (Rattus norvegicus)
# Test Description: Uncompetitive inhibition of rat MAOB expressed in Pichia pastoris
Reported Metric: pKi
Lab note — pKi values are minus log10 of concentrations in M.

In: Hello, I am looking for reported pKi with Amine oxidase [flavin-containing] B (Rattus norvegicus) for Cc1c(C)c2c(c(C)c1O)CCC(C)(COc1ccc(CC3SC(=O)NC3=O)cc1)O2 (stereo unspecified) [TROGLITAZONE] . Could you help?
Out: 4.96

---

# System: Amine oxidase [flavin-containing] A (Homo sapiens)
# Test Description: Uncompetitive inhibition of human MAOA expressed in Pichia pastoris
Reported Metric: Ki (µM)
Supply the numeric figure in µM, leaving out any unit text.

In: Looking for the measured Ki of Cc1c(C)c2c(c(C)c1O)CCC(C)(COc1ccc(CC3SC(=O)NC3=O)cc1)O2 (stereo unspecified) , can you help?
Out: 10.5

Hey, just so you know, these numbers are from ChEMBL document CHEMBL2029226.
